The compounds listed here are annotated with their HNF4a-screening_activity_(mean_of_n=2).
TARGET: Gal4-HNF4α (human HNF4α LBD) (Homo sapiens)
Construct: uniprot entry: P41235-1, residues 142-377; expressed in transfected cells; host or cells: HEK293T
EXPERIMENTAL DETAILS: Hybrid Gal4-HNF4α reporter gene assay in transiently transfected HEK293T cells
Format: cell-based
CONDITION DETAILS: Table S1, primary screening, 50 µM
Number only, no unit.

compound=Cn1cc(CC(=O)O)c2ccccc21 target="Gal4-HNF4α (human HNF4α LBD) (Homo sapiens)" readout=HNF4a-screening_activity_(mean_of_n=2) measured_value=1.168
compound=CN1CCN(S(=O)(=O)c2ccccc2)CC1 target="Gal4-HNF4α (human HNF4α LBD) (Homo sapiens)" readout=HNF4a-screening_activity_(mean_of_n=2) measured_value=0.8018
compound=Cc1nc(-c2ccccc2)c(-c2ccccc2)o1 target="Gal4-HNF4α (human HNF4α LBD) (Homo sapiens)" readout=HNF4a-screening_activity_(mean_of_n=2) measured_value=1.374
compound="NC1CCc2ccccc21 (stereo not drawn)" target="Gal4-HNF4α (human HNF4α LBD) (Homo sapiens)" readout=HNF4a-screening_activity_(mean_of_n=2) measured_value=1.151
compound=OCCc1ccc(Cl)cc1 target="Gal4-HNF4α (human HNF4α LBD) (Homo sapiens)" readout=HNF4a-screening_activity_(mean_of_n=2) measured_value=0.9659
compound=O=C1c2ccc(Cl)cc2CCc2cccnc21 target="Gal4-HNF4α (human HNF4α LBD) (Homo sapiens)" readout=HNF4a-screening_activity_(mean_of_n=2) measured_value=0.9858

input: HNF4a-screening_activity_(mean_of_n=2) for Cc1ccccc1C(=O)Nc1ccccc1 ?
output: 1.357

input: How about this compound: Cc1ncsc1CCO
output: 1.111

input: How about this compound: N#CCC(=O)N1CCCCC1
output: 0.9277

input: How about this compound: Cc1nnc(N)s1
output: 1.123

input: How about this compound: Clc1ccc(CNc2ccccn2)cc1
output: 1.16

input: How about this compound: CC1(c2ccccc2)NC(=O)NC1=O (stereo not drawn)
output: 0.789

input: How about this compound: Cc1cc(=O)n(-c2ccccc2)[nH]1 [Prestw-Frag-3742, Cc1cc(=O)n([nH]1)-c1ccccc1]
output: 0.8727

input: How about this compound: NCc1ncc[nH]1 [Prestw-Frag-3689, NCc1ncc[nH]1]
output: 0.8561

----------
TARGET: Gal4-HNF4α (human HNF4α LBD) (Homo sapiens, UniProt P41235)
Construct: uniprot entry: P41235-1, residues 142-377; expressed in transfected cells; host or cells: HEK293T
Sequence (P41235 142-377): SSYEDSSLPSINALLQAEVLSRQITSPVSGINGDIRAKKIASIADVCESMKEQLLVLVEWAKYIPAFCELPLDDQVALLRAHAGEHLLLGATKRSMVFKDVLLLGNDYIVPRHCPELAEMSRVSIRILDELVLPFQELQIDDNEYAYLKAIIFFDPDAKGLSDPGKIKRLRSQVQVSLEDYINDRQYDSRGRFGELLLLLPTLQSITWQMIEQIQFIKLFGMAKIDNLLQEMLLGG
EXPERIMENTAL DETAILS: Hybrid Gal4-HNF4α reporter gene assay in transiently transfected HEK293T cells
Type: cell-based
CONDITION DETAILS: Table S1, primary screening, 50 µM
READOUT: HNF4a-screening_activity_(mean_of_n=2)
Number only, no unit.

input: HNF4a-screening_activity_(mean_of_n=2) for O=c1[nH]nc(Cc2ccccc2)c2ccccc12 [Prestw-Frag-1561, O=c1[nH]nc(Cc2ccccc2)c2ccccc12] ?
output: 1.103

----------
TARGET: Gal4-HNF4α (human HNF4α LBD) (Homo sapiens, UniProt P41235)
Construct: uniprot entry: P41235-1, residues 142-377; expressed in transfected cells; host or cells: HEK293T
EXPERIMENTAL DETAILS: Hybrid Gal4-HNF4α reporter gene assay in transiently transfected HEK293T cells
Assay type: cell-based
CONDITION DETAILS: Table S1, primary screening, 50 µM
READOUT: HNF4a-screening_activity_(mean_of_n=2)
Number only, no unit.

Worked cases, HNF4a-screening_activity_(mean_of_n=2) given:
molecule=O=C(O)C(c1ccccc1)c1ccccc1 target="Gal4-HNF4α (human HNF4α LBD) (Homo sapiens, UniProt P41235)" readout=HNF4a-screening_activity_(mean_of_n=2) measured_value=1.082
molecule=c1cnccn1 target="Gal4-HNF4α (human HNF4α LBD) (Homo sapiens, UniProt P41235)" readout=HNF4a-screening_activity_(mean_of_n=2) measured_value=1.207
molecule=CN1CCN(CCCC(=O)c2ccc(F)cc2)CC1 target="Gal4-HNF4α (human HNF4α LBD) (Homo sapiens, UniProt P41235)" readout=HNF4a-screening_activity_(mean_of_n=2) measured_value=1.385
molecule=COC(=O)C1=C(C)NC(C)=C(C(=O)OC)C1 target="Gal4-HNF4α (human HNF4α LBD) (Homo sapiens, UniProt P41235)" readout=HNF4a-screening_activity_(mean_of_n=2) measured_value=0.9986
molecule=FC(F)(F)c1nnc2n1CCNC2 target="Gal4-HNF4α (human HNF4α LBD) (Homo sapiens, UniProt P41235)" readout=HNF4a-screening_activity_(mean_of_n=2) measured_value=1.371

input: HNF4a-screening_activity_(mean_of_n=2) for CCN(CC)C(=O)CC#N ?
output: 0.9542

input: How about this molecule: c1ccc2c(c1)CCCN2
output: 0.9914
